The origin of these recorded values is the nanobody polyreactivity screen of Harvey et al. (2022).

# assay.details: yeast display, Sf9 membrane polyspecificity reagent, FACS + sequencing; frameworks hold sequencing errors
quantity.name: polyreactivity (PSR sort gate)

- biosequence: "QDQLVESGGGLVQAGGSLRLSCAASGRTFNGYAMGWYRQAPGKDRELVARITYRGGGTYYADSVKGRFTISRDNAKNTVYLQMNILKTEDTAVYYCNARGVQYRYYYWGQGTQVTVSS"
  polyreactivity (PSR sort gate): "high polyreactivity"
- biosequence: "QVQLVESGGGLVQAGGSLRLSCAASGFTFRYYAMGWYRQAPGKERELVAAINSGDSTNYADSVKGRFTISRDNAKNTVYLQMNSLKPEDTAVYYCATRLWKIPGAMYYWGQGTQVTVSS"
  polyreactivity (PSR sort gate): "high polyreactivity"
- biosequence: "QVQLVESGGGLVQEGGSLRLSCAASGYIFYYYAMGRYIQAPGKERELVAAISTSDTRTFYADSVKGRFTISRDNAKNTVYLQMNSRKPEDTAVYFCAASLYKGGPNYGYEYWGQGTQVTVSS"
  polyreactivity (PSR sort gate): "low polyreactivity"
- biosequence: "QVQLVESGGGLVQAGGSLRLSCAASGRIFAFYAMGWYRQAPGKERELVAAISWSGGSTYFADSVKGRFTISRDNAKNTVYLQMHSLIPEDTAVYYCAAYRTRGSAYPYDYWGQGTQVTVSS"
  polyreactivity (PSR sort gate): "high polyreactivity"

For the sequence shown here, `QVQLVESRGGLVQAGGSLRLSCAASGSTFYIYAMGWYRQAPGKERELVAAIDWNDGSTYYADSVKGRFTISRDNAKNTVYLQMNSLKPEDTAVYYCAAAIYIYRDGTYDYWGQGTQVTVSS` , give the reported polyreactivity (PSR sort gate).
high polyreactivity

Same question for `QVQLVESGAGLVQAGCRLRLSCASSGIIFSPNAIGWYRQAPGKERELVAAISKRGGSTYYADSVKGRFTISRDNAKNTVYLQLHSLKQEDTAVYYCAKRQQQSSGYDYWGQGTQVTVSS` please.
high polyreactivity

Now the same for `QVQLVESGGGIVQAGGSLRLSCAASGRICIINAMGWYRQATGKERELVAAISTSGGRTYYADSVKGRFTISRDNAKNTVYLQKNSLKPVDTAVYYCNAGRGYRYYRSVGSSPYEYWGQGTQVTVSS`
high polyreactivity

Again, but for `QVQLVESGGGLVQAGGSLRLRCASSGRIFFGYAMGWYRQAPGKERELVASISRGGSTNYADSVKGRFTISRDNAKNTVYLQMHSLKPEDTAVYYCAASRYLQRYGMYYWGQGTQVTVSS`
high polyreactivity

Next entry: `QVQLVESGGGLVQAGGSLRLSCAASGRTIWYNAMGWYRQAPGKERELVAVISSGAITYYADSVKGRFTFSRDNGKNTVYLQMNSLKPEDTAFYYCAARSYLSLIDYWGQGTQVNVSS`
high polyreactivity

Subsequent entry: `QVQLVESGAGLVQAGGSLRLSCAPSGRIFEYNAMGWYRQAPGKESELVAAIRSGGGSTYYADSVKGRFTISRDNAKNTVYLQMNSLNPEDTAVYYCAARRKRVSFYAEYDYWGQGTQVTVSS`
low polyreactivity

Next up: `QVQLVESGGGLVQAGGSLRLSCAASGYTFESYTMGWYRQAPGKEREFVAVISSSDTSTSYADSVKGRFTISRDNAKNTVYLQMNSLKPEDTAVYYCAAYSSPYYITYYWYNYDYWGQGTQVTVSS`
low polyreactivity
